Sourced from ChEMBL document CHEMBL3217463

# IC50 per entry for 72 kDa type IV collagenase (Homo sapiens)

Look over these answered cases.
COCc1cc(COc2ccc([C@]3(N)CCN([C@H](CC(C)C)C(=O)NO)C3=O)cc2)c2ccccc2n1	1170 nM
COCCc1cc(COc2ccc([C@]3(N)CCN([C@H](CC(C)C)C(=O)NO)C3=O)cc2)c2ccccc2n1	1090 nM

Alright, here's another molecule for you.
Param item: Cc1cc(COc2ccc([C@]3(N)CCN([C@H](CC(C)C)C(=O)NO)C3=O)cc2)c2ccccc2n1 ; param system: 72 kDa type IV collagenase (Homo sapiens); output IC50: 482 nM

###

Here we list molecules with their recorded pIC50 when tested on Stromelysin-1 (Homo sapiens).
Sequence (P08254 whole entry): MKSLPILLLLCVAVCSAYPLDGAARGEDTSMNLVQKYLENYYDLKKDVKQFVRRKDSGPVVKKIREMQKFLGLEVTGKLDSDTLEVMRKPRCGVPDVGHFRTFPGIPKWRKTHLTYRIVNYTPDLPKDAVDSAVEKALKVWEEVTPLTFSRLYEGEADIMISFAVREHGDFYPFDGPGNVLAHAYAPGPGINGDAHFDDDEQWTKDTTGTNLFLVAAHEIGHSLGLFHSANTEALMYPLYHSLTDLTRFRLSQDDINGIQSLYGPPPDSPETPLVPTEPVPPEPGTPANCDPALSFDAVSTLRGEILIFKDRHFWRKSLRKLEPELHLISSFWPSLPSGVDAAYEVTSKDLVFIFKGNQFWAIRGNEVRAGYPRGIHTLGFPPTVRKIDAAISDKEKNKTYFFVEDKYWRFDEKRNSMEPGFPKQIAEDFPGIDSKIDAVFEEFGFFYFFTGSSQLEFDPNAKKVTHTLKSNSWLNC
Keep in mind that pIC50 stands for -log10 of concentration in molar terms.

Observe how each entry below is paired with its result.
COCc1cc(COc2ccc([C@]3(N)CCN([C@H](CC(C)C)C(=O)NO)C3=O)cc2)c2ccccc2n1	5.97
Cc1cc(COc2ccc([C@]3(N)CCN([C@H](CC(C)C)C(=O)NO)C3=O)cc2)c2ccccc2n1	6.55

Next:
Lab book: pIC50 of COCCc1cc(COc2ccc([C@]3(N)CCN([C@H](CC(C)C)C(=O)NO)C3=O)cc2)c2ccccc2n1 noted as 5.99
